system: OVCAR-5; experiment: NCI tumour cell line growth inhibition, 48 h
Active and inactive are the calls of the source. No stated cut-off is given here; in the data, active = GI50 up to about 1.1 µM and inactive = higher.
Possible outcomes: active, inactive

molecule	cat
Cc1ccc2c(c1)SSSSS2	inactive
CC(=O)Nc1ccc(Sc2nnc(NC(C)=O)s2)cc1	inactive
COc1ccc2c(c1)[n+]([O-])c(C(=O)C/C(=N/NC(=O)c1ccccc1O)C(=O)Nc1ccc(Cl)c(C(F)(F)F)c1)c(C)[n+]2[O-]	inactive
CC1(C)OC(=S)N(c2ccccc2)C12C=Cc1cc3ccccc3cc1O2 (configuration not stated)	inactive
O=C(O)Cc1ccccc1 [PHENYLACETIC ACID]	inactive
CCCCNc1nc(SC)nc2[nH]cnc12	inactive
COc1ccc(-c2c(N)[n+]([O-])c3cc(C)c(C)cc3[n+]2[O-])cc1OC	inactive
COc1cc(C2c3cc4c(cc3[C@@H](Nc3ccccc3)C3COC(=O)[C@H]23)OCO4)cc(OC)c1O (some centres not stated)	inactive
CCC1c2[nH]c3ccccc3c2C[C@H]2C(=O)NC(C)C(=O)N12 (some centres not stated)	inactive
NC1(CCCCCCCCCCC(=O)O)CNCCNCCNCCNC1	inactive
CCCCCCNC(=O)c1cc(CCc2cc(O)ccc2O)ccc1O	inactive
CC1CC(=O)Nc2ccccc2N1C(=O)C1CC1 (configuration not stated)	inactive
O=C(/C=C/c1c(O)ccc2ccccc12)c1ccccc1Cl	inactive
O=C1c2cccnc2C(=O)c2c1nc1ccccc1c2-c1cncc(-c2c3c(nc4ccccc24)C(=O)c2cccnc2C3=O)c1	inactive
Oc1cc(-c2ccc(F)cc2)nc2ncc(Cl)cc12	inactive
Cc1cccc2c(N)c3cccc(C(=O)NCCN4CCOCC4)c3nc12	active
CCCCCC(/C=N/N)C(O)(C(F)(F)F)C(F)(F)F (configuration not stated)	inactive
Cc1ccc(-c2c(C#N)c(S)n(NS(=O)(=O)c3ccc(C)cc3)c(=O)c2C#N)cc1	inactive
COc1ccc(/C=N/NC(=O)O)cc1	inactive
O=c1c2cc(Br)ccc2[nH]c(=S)n1-c1ccccc1	inactive
CC1=NOC(=O)/C1=C/c1cccc2ccccc12	inactive
O=c1/c(=C/c2ccccc2[N+](=O)[O-])sc2nnc(-c3cccnc3)n12	inactive

====

tested on: OVCAR-4; experiment: NCI tumour cell line growth inhibition, 48 h
Activity calls are given as the source filed them. Rule as the data show it: active = GI50 up to about 1.1 µM and inactive = higher.

compound	GI50
CCOc1c(OC)cc(C2c3cc4c(c(OCC)c3CC3COC(=O)C32)OCO4)cc1OC (stereo not given)	8.28 µM (inactive)
O=c1c(O)c(-c2cc(O)c(O)cc2O)oc2cc(O)c(C3OC(CO)C(O)C(O)C3O)c(O)c12 (stereo not given)	> 100 µM (inactive)
CCCCCOc1ccc(/C=N\c2ccc(CCc3ccc(/N=C/c4ccc(OCCCCC)cc4)cc3)cc2)cc1	> 100 µM (inactive)
CC(=O)Nc1ccccc1S(=O)(=O)c1ccccc1	> 100 µM (inactive)
Fc1ccc(NCn2nc(COc3ccccc3Cl)n(/N=C/c3ccc(-c4ccc(Cl)cc4Cl)o3)c2=S)cc1Cl	53.2 µM (inactive)
O=C(Oc1c(Cl)cc(C2(c3cc(Cl)c(OC(=O)c4ccccc4)c(Cl)c3)CCCCC2)cc1Cl)c1ccccc1	10.9 µM (inactive)
CC[C@H](C)N(CCN)C(=O)c1cc2ccccc2c(-c2ccccc2Cl)n1	14.6 µM (inactive)
CC1=C(C#N)C2C(=C(N)Oc3ccccc32)C(N)=N1 (stereo not given)	32.8 µM (inactive)
CN1C(=O)CC2(C)c3cc(O)cc(Br)c3N(C)C12 (stereo not given)	> 10 µM (inactive)
O=C(/C=C/c1c(O)ccc2ccccc12)c1ccccc1Cl	39 µM (inactive)
Cc1ccc(S(=O)(=O)NC(=O)NC(C(=O)O)C(C)C)cc1 (stereo not given)	> 100 µM (inactive)
COc1ccc(/C=C/C(=O)c2cccc(C(=O)/C=C/c3ccc(OC)c(OC)c3)n2)cc1OC	> 100 µM (inactive)
C/C=C(\N=C=S)C(=O)OC1C(COC(C)=O)OC([C@]2(O)CC(=O)C(N)=C(C(=O)O)C2=O)C(O)C1OC1CC(OC)C(O)([C@@H](C)OC(=O)[C@@H](C)CC)C(C)O1 (stereo not given in full)	4.26 µM (inactive)
CC1=C(C(=O)CC(=O)C(=O)Nc2ccc(Cl)cc2C)Sc2ccccc2N1	> 100 µM (inactive)
CCCCCCNC(=O)c1cc(CCc2cc(O)ccc2O)ccc1O	2.47 µM (inactive)
COC(=O)/C(=N\NC(N)=S)C(C#N)c1ccccc1 (stereo not given)	> 100 µM (inactive)
COC(=O)/C=C(\S/C(=C(/c1ccc(OC)cc1)n1cc(C(=O)OC)c(C(=O)OC)n1)c1ccc(OC)cc1)C(=O)OC	19.4 µM (inactive)
OCC1OC2c3ccccc3COC2C1OCc1ccccc1 (stereo not given)	> 100 µM (inactive)
CCN(CC)CCOC(=O)CCN1CC2CCC(CC2)C1	> 100 µM (inactive)
COC(=O)/C(C#N)=C1\NC(=O)c2ccccc21	> 100 µM (inactive)

====

system: LOX IMVI; experiment: NCI tumour cell line growth inhibition, 48 h
Active and inactive are the calls of the source. No stated cut-off is given here; in the data, active = GI50 up to about 1.1 µM and inactive = higher.
Possible outcomes: yes (1) for active, no (0) for inactive

molecule	cat
Cc1ccc(/N=C2\N=C(N3CC(C)OC(C)C3)c3ccccc32)cc1 (configuration not stated)	no (0)
O=C1CSC(c2cc3cc(Br)ccc3nc2Cl)N1c1ccc(F)c(Cl)c1 (configuration not stated)	no (0)
N#CC(c1nc2ccccc2s1)c1nc(Cl)ncc1Br (configuration not stated)	no (0)
CC(N)Cc1ccc(Cl)cc1 (configuration not stated)	no (0)
O=C(O)/C=C/C(=O)N1C/C(=C\c2ccccc2)C(=O)/C(=C/c2ccccc2)C1	no (0)
CN1C(=O)C2(Cc3cn(C45CC67SSC(CO)(C(=O)N6C4Nc4ccccc45)N(C)C7=O)c4ccccc34)SSC1(CO)C(=O)N2C (configuration not stated)	yes (1)
C[N+](C)(C)CCOP(=O)([O-])OCCNC(=O)c1ccc2ccccc2c1	no (0)
CCN(CC)CCOC(=O)CCN1CC2CCC(CC2)C1	no (0)
Cn1cnc([N+](=O)[O-])c1Sc1nc2ccccc2[nH]1	no (0)
Cc1cc(NC(=O)NC(=O)c2ccccc2NC(=O)C(C)N)ccc1Oc1ncc(Br)cn1 (configuration not stated)	yes (1)
CC(C)c1c(O)c(O)c2c(c1O)C(=O)C(O)=C1C(C)(C)CCC[C@@]12C	no (0)
COc1cccc(C(=O)N2CCc3ccccc32)c1OC	no (0)
Cc1c(-c2ccccc2)c(C#N)c2nnn(-c3cccc(Cl)c3)c(=O)n12	no (0)
COc1ccc(Cn2nc(OCc3ccccc3)c3cc([N+](=O)[O-])ccc32)cc1	no (0)
N#CCCN(CCC#N)c1ccc(/C=C(/NC(=O)Nc2ccccc2Cl)NC(=O)c2cc([N+](=O)[O-])ccc2Cl)cc1	no (0)
CC#CC#C/C(=C/C=CC(=O)OC)SC	no (0)
Cc1cc(C2(O)C=C(C(C)(C)C)C(=O)C(C(C)(C)C)=C2)c(C)cc1C1(O)C=C(C(C)(C)C)C(=O)C(C(C)(C)C)=C1	no (0)
O=C(NCCCC/N=c1/cccccc1NCCCCNC(=O)OCc1ccccc1)OCc1ccccc1	no (0)
CCN(CC)CC(O)c1ccc2ccc3ccccc3c2c1 (configuration not stated)	no (0)
COc1cc(/C=C2\N=C(c3ccccc3)N(c3nc4ccc(Sc5ccccc5)cc4[nH]3)C2=O)ccc1O	no (0)
Cc1ccc(C)n1-c1ccccc1C1C=CN(C(=O)OC(C)(C)C)C=C1	no (0)
CCOC(=O)NC(=O)c1cn(C(CC)COC(=O)NCCCCCCNC(=O)OCC(CC)n2cc(C(=O)NC(=O)OCC)c(=O)[nH]c2=O)c(=O)[nH]c1=O (configuration not stated)	no (0)
CCOC(=O)CCc1cc(=O)oc2cc(O)cc(O)c12	no (0)
CC(=O)OCC1OC(n2c3c(c(-c4cccc5ccccc45)c(C#N)c2=S)CCCC3)C(OC(C)=O)C(OC(C)=O)C1OC(C)=O (configuration not stated)	no (0)
N#Cc1cccc(N2C(=O)C3C4C=CC(C3C2=O)C2C(=O)N(c3cccc(C#N)c3)C(=O)C42)c1 (configuration not stated)	no (0)
CCCCNc1nc(SC)nc2[nH]cnc12	no (0)
CCc1cccc(C(C)C)c1NC(=O)C(=O)Nn1c(S)nc2ccccc2c1=O	no (0)
CC1=NOC(=O)/C1=C/c1cccc2ccccc12	no (0)
NC(=O)/N=C(\N)NC(=O)c1ccccc1	no (0)
C#Cc1cccc(N2C(=O)CCC2=O)c1	no (0)
COc1cc(OC)c(Oc2cccc(OC)c2OC)c(OC)c1	no (0)
O=C(Nc1ncc([N+](=O)[O-])s1)c1ccccc1O [TIZOXANIDE]	no (0)
Cc1ccc(CC(Cc2ccccc2C)C(=O)O)c(C(=O)O)c1 (configuration not stated)	no (0)
O=C(/C=C/c1c(O)ccc2ccccc12)c1ccccc1Cl	no (0)
COC(=O)/C=C(\S/C(=C(/c1ccc(OC)cc1)n1cc(C(=O)OC)c(C(=O)OC)n1)c1ccc(OC)cc1)C(=O)OC	no (0)
N#C/C(=C\c1cc(OCc2ccccc2)c(OCc2ccccc2)cn1)C(N)=O	no (0)
C/C1=C/C2OC(=O)C3(C)C2C(CC2(C)OC1=CC2=O)OC3(O)C(C)C (configuration not stated)	no (0)
CN(C)CC1COC2Cc3ccccc3C1O2 (configuration not stated)	no (0)
COc1ccc(-n2c(CCC(=O)O)nc3c2C(=O)c2ccccc2C3=O)cc1	no (0)
O=C(CC1C(=O)Nc2ccccc2S1(=O)=O)Nc1cc(Cl)ccc1Cl (configuration not stated)	no (0)
COC(=O)C1(Cc2ccccc2)Cc2ccccc2C1	no (0)
COC(=O)c1nc(NN)cc(O)c1CCCCCc1c(O)nc(NN)nc1C(=O)OC	no (0)
